- System: MCF7
- Method Notes: NCI tumour cell line growth inhibition, 48 h
The source made the active and inactive calls. No stated cut-off is given here; in the data, active = GI50 up to about 1.1 µM and inactive = higher.
Result category, one only: yes for active, no for inactive

Solved entries (count: 3):
Molecule | System Tested | Discrete Label
O=C(O)/C=C\C(=O)Nc1ccc2c(c1)C(=O)c1cc(F)ccc1-2 | MCF7 | no
Oc1c(Br)cc(/C=C/c2ccnc(/C=C/c3cc(Br)c(O)c(Br)c3)c2)cc1Br | MCF7 | no
COc1ccccc1C(=O)NCC1CCCN2CCCCC12 (stereo not given) | MCF7 | no

Exercise: Kindly provide the recorded test outcome for the following molecule: C=C1C(=O)OC2CC3(C)CCCC(C)C3=CC12 (stereo not given)
Key: no

Exercise: Kindly provide the recorded test outcome for the following molecule: CC[C@](O)(C(=O)O)c1cc2n(c(=O)c1CO)Cc1cc3ccccc3nc1-2
Key: yes

Exercise: Kindly provide the recorded test outcome for the following molecule: CN(C)CCCNc1nnc(NCCCN(C)C)c2c(=O)c3sccc3[nH]c12
Key: no

Exercise: Kindly provide the recorded test outcome for the following molecule: C#CC(C)(C)OC(=O)C(=[N+]=[N-])C(C)=O
Key: no

---

- Test system: SK-OV-3
- Method Notes: NCI tumour cell line growth inhibition, 48 h
Activity calls are given as the source filed them. Rule as the data show it: active = GI50 up to about 1.1 µM and inactive = higher.
Test Readout: GI50

Compound | System Tested | Test Readout | Result
O=C1OCC2=C1C(c1ccc3c(c1)OCO3)c1cc3c(cc1O2)OCO3 (stereo unspecified) | SK-OV-3 | GI50 | 0.776 µM (active)
COC1(OC)C2(Cl)CCC1(Cl)C(OC(C)=O)C2 (stereo unspecified) | SK-OV-3 | GI50 | > 100 µM (inactive)
CCCCCN(CCCCC)C(=O)[C@@H](CCC(=O)O)NC(=O)c1cc2ccccc2[nH]1 | SK-OV-3 | GI50 | 65.2 µM (inactive)

So for CN(C)c1ccc(/C=C(\C#N)c2nc(-c3cc4ccccc4oc3=O)cs2)cc1 , the logged GI50 turned out to be 19.9 µM (inactive)

So for CCOC(=O)c1sc2c(c1OC(=O)c1cccs1)c(=O)n(-c1ccccc1)c(=S)n2-c1ccccc1 , the logged GI50 turned out to be 18.2 µM (inactive)

So for Oc1cccc2cc(Cl)cnc12 , the logged GI50 turned out to be 50.4 µM (inactive)

---

- Test system: M14
- Method Notes: NCI tumour cell line growth inhibition, 48 h
Active and inactive are the calls of the source. Rule as the data show it: active = GI50 up to about 1.1 µM and inactive = higher.
The following compounds are shown together with reported GI50 values.

Record excerpt, results attached:
Compound | System Tested | GI50
Cc1cc2c(cc1C)[n+]([O-])c(-c1c(Cl)cccc1Cl)c(N)[n+]2[O-] | M14 | 33 µM (inactive)
CCOC(=O)c1ncn2c1[nH]c(=O)c1ccccc12 | M14 | > 100 µM (inactive)
OC1[C@@H]2[C@@H](O)[C@H](O)[C@@H](O)N2C[C@@H]1O (stereo not given in full) | M14 | > 100 µM (inactive)
COC(=O)c1cc(C)ccc1C1CN=NC12Cc1c(C)cc(C)cc1C2=O (stereo not given) | M14 | 17 µM (inactive)

Now let's try a different one.
Given the compound CCN(CC)CC(C(=O)Nc1c(C)cccc1C)/C(C)=N/NC(N)=S (stereo not given) and test system M14, the measured GI50 is > 100 µM (inactive)

---

- System: RPMI-8226
- Method Notes: NCI tumour cell line growth inhibition, 48 h
Active and inactive are the calls of the source. No stated cut-off is given here; in the data, active = GI50 up to about 1.1 µM and inactive = higher.
Result category, one only: active, inactive

Exercise: Kindly provide the recorded test outcome for the following compound: CCOC(=O)C#Cc1ccccc1
Key: inactive

---

- Test system: KM12
- Method Notes: NCI tumour cell line growth inhibition, 48 h
The source made the active and inactive calls. Rule as the data show it: active = GI50 up to about 1.1 µM and inactive = higher.
Result category, one only: active, inactive

Compound | Discrete Label
COc1ccccc1C(=O)NCC1CCCN2CCCCC12 (stereo not given) | inactive
CC(C)OP(=O)(OC(C)C)c1nn(-c2ccc([N+](=O)[O-])cc2)c(=N)s1 | inactive
COC1CC(NC(=O)C(F)(F)F)C(OC(C)=O)C(C)O1 (stereo not given) | inactive

Exercise: Kindly provide the recorded test outcome for the following compound: O=C1C=CC=C/C1=C1/SC(c2ccccc2)=C(O)N1c1ccccc1
Key: inactive

Exercise: Kindly provide the recorded test outcome for the following compound: O=C1C[C@@]23CCC4(CC2=CCC[C@H]3O1)OCCO4
Key: inactive

Exercise: Kindly provide the recorded test outcome for the following compound: C=CCNC(=O)N(CCC)CCCCC(NC(C)=O)C(=O)NCc1ccccc1 (stereo not given)
Key: inactive

Exercise: Kindly provide the recorded test outcome for the following compound: FC(F)(F)c1cccc(-c2nc3nc(Cl)c(Cl)nc3[nH]2)c1
Key: inactive

Exercise: Kindly provide the recorded test outcome for the following compound: COc1cc([C@@H]2c3cc4c(cc3[C@@H](c3c(O)cc(O)c5c3O[C@H](c3ccc(O)c(O)c3)[C@@H](O)C5)[C@H]3COC(=O)[C@H]23)OCO4)cc(OC)c1O
Key: inactive

Exercise: Kindly provide the recorded test outcome for the following compound: O=CN1CCN(C(=O)c2ccc(Cl)cc2Cl)C1=S
Key: inactive

Exercise: Kindly provide the recorded test outcome for the following compound: Cn1ncc2c(NCc3ccccc3)ncnc21
Key: inactive

Exercise: Kindly provide the recorded test outcome for the following compound: O=C(O)CCC(O)=C1S(=O)(=O)OCCOS1(=O)=O
Key: inactive

Exercise: Kindly provide the recorded test outcome for the following compound: COC(=O)C(=O)c1cc2ccccc2n1S(=O)(=O)c1ccccc1
Key: inactive

Exercise: Kindly provide the recorded test outcome for the following compound: Cc1cn(C2CC(n3cc(Cn4cc(F)c(=O)[nH]c4=O)nn3)C(CO)O2)c(=O)[nH]c1=O (stereo not given)
Key: inactive

Exercise: Kindly provide the recorded test outcome for the following compound: Nc1ccc(-c2nc3ccc(F)cc3s2)cc1Cl
Key: inactive

Exercise: Kindly provide the recorded test outcome for the following compound: CC1[C@@H]2CC=C3C4CCC5Cc6nc7c(nc6C[C@@]5(C)C4CC(=O)[C@]32CO[C@@]1(O)C(O)CC(C)(C)O)CC1CCC2C3=C[C@H]4O[C@@]5(O[C@@](C)(CO)C[C@@H]5O)C(C)[C@@]4(O)[C@]3(C)[C@@H](O)CC2[C@]1(C)C7 (stereo not given in full)
Key: active

Exercise: Kindly provide the recorded test outcome for the following compound: Cc1nc2c(=O)n3c4c(cccc4c2o1)CCC3
Key: inactive

Exercise: Kindly provide the recorded test outcome for the following compound: CCOC1=NC(O)c2cccn2-c2sccc21 (stereo not given)
Key: inactive

---

- System: HOP-92
- Method Notes: NCI tumour cell line growth inhibition, 48 h
Activity calls are given as the source filed them. No stated cut-off is given here; in the data, active = GI50 up to about 1.1 µM and inactive = higher.
Result category, one only: T for active, F for inactive

Solved entries (count: 5):
Compound | Discrete Label
CC(C)(C)C(=O)Cc1cc2c(cc1C(=O)O)S(=O)(=O)NC(C(C)(C)C)=C2 | F
COC1OC(C)C(OC(=O)C(C)(C)C)C(C)(O)C1O (stereo not given) | F
O=C1OC(CC(=O)c2ccccc2Cl)C(Cl)=C1Cl (stereo not given) | F
O=C(O)c1ccc(NS(=O)(=O)Cc2ccccc2)cc1 | F
COc1cc(C(=O)NC2CCc3cc(OC)c(OC)c(OC)c3-c3ccc(OC)c(=O)cc32)cc(OC)c1OC (stereo not given) | T

Exercise: Kindly provide the recorded test outcome for the following compound: CC(=O)NC(CCCCNC(=O)N(C)N=O)C(=O)NCc1ccccc1 (stereo not given)
Key: F

Exercise: Kindly provide the recorded test outcome for the following compound: COC1(OC)C2(Cl)CCC1(Cl)C(OC(C)=O)C2 (stereo not given)
Key: F

---

HCT-15: recorded GI50 for assorted compounds

Compound | GI50
COc1cccc(Nc2n[nH]c(NS(=O)(=O)c3cc(C)c(Cl)cc3S)n2)c1 | > 100 µM
COC(=O)c1c(C)[nH]c2c1C(=O)C(=O)c1nc(C)c(C)nc1-2 | 9.98 µM
COc1ccc(-c2c3c(n(C4OC(CO)C(O)C(O)C4O)c(=S)c2C#N)CCC3)cc1 (stereo not given) | 85.7 µM
Cc1noc(NS(=O)(=O)c2ccc(NC(=O)c3ccc4nc5ccccc5c(Nc5ccc(S(=O)(=O)Nc6onc(C)c6C)cc5)c4c3)cc2)c1C | 58.1 µM

Given the compound Cc1cnc(-c2c[nH]c3ccccc23)nc1-c1c[nH]c2ccccc12 and test system HCT-15, the measured GI50 is 5.81 µM

---

- System: HL-60
- Method Notes: NCI tumour cell line growth inhibition, 48 h
Active and inactive are the calls of the source. No stated cut-off is given here; in the data, active = GI50 up to about 1.1 µM and inactive = higher.
Result category, one only: true (1) = active, false (0) = inactive

Molecule | Discrete Label
COc1cc(Cc2cc3c(c(C(=O)O)c2Br)OCO3)cc(OC)c1OC | false (0)
c1ccc([P+](CC[P+](c2ccccc2)(c2ccccc2)c2ccccc2)(c2ccccc2)c2ccccc2)cc1 | true (1)
COC1CC(OC)C2OC(c3ccccc3)OCC2O1 (stereo unspecified) | false (0)

Then this molecule:
Exercise: Kindly provide the recorded test outcome for the following molecule: CN1C(=O)CC(c2cccc(C3CC(=O)N(C)C3=O)n2)C1=O (stereo unspecified)
Key: false (0)
